# TGT: T1, human IL-17A (human, UniProt Q16552 24-155)
# T1 construct: Biotinylated in the ELISA; also called hIL-17; Hu IL-17A
# EXPERIMENTAL DETAILS: ELISA, captured antibody, serially diluted biotin-IL-17 (Example 1.5.1)
MEASURED ENDPOINT: pEC50
Scale for pEC50: -log10 of concentration given in mol/L; no unit attached.

[in] Could you share which pEC50 value was measured for IL17-G9-1 (antibody, V domains shown) VH: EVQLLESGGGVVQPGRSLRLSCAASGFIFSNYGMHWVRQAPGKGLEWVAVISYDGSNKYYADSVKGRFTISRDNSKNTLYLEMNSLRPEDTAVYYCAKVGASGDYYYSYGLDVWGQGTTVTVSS VL: QSVLTQPPSASGTPGQTVSISCSGSHSNIGRHPVDWYQQVPGAAPKLLMYYGGYRPSGVPDRFSGSQSGTSASLAISGLQSEDEADYYCATWDDRLVGYVFGSGTKVTVLG ?
[out] 9.89

[in] Note, next up: IL17-TN-L7-A7 (antibody, V domains shown, Fully human monoclonal antibody from mRNA display) VH: EVQLLESGGGVVQPGTFLRLSCAATGFTFSAYGMHWVRQAPGRGLEWVAVTSYDGSNKYYADSVKGRFTISRDNSKNTLYLEMNSLRPEDTAVYYCAKVGASGDYYYSYGLDVWGQGTMVTVSS VL: QSGLTQPPSASGTPGQTVSISCSGSNSNIGSHSVNWYQQVPGAAPKLLMYGIGQRPSGVPDRFSVSQSGTSASLAISGLQSEDEADYYCATWDDSLGGYVFGSGTKVTVLG
[out] 9.88

Reference source: patent US20140348834A1
